Quick record of pIC50 values for Epidermal growth factor receptor (Homo sapiens, UniProt P00533).
FYI, pIC50 means -log10 of a concentration in mol per litre.

COc1cc2ncnc(Nc3ccc(OCc4cccc(F)c4)c(Cl)c3)c2cc1OCCCCCCC(=O)NO has a reported pIC50 of 8.04

COc1cc2ncnc(Nc3ccc(F)c(Cl)c3)c2cc1OCCCCC(=O)NO has a reported pIC50 of 8.03

COc1cc2ncnc(Nc3ccc(F)c(Cl)c3)c2cc1OCCCC(=O)NO has a reported pIC50 of 8.11

COc1cc2ncnc(Nc3ccc(F)c(Cl)c3)c2cc1S(=O)(=O)CCCCCCC(=O)NO has a reported pIC50 of 7.81

====

Molecular target: Vascular endothelial growth factor receptor 2 (Homo sapiens)
Sequence (P35968 whole entry): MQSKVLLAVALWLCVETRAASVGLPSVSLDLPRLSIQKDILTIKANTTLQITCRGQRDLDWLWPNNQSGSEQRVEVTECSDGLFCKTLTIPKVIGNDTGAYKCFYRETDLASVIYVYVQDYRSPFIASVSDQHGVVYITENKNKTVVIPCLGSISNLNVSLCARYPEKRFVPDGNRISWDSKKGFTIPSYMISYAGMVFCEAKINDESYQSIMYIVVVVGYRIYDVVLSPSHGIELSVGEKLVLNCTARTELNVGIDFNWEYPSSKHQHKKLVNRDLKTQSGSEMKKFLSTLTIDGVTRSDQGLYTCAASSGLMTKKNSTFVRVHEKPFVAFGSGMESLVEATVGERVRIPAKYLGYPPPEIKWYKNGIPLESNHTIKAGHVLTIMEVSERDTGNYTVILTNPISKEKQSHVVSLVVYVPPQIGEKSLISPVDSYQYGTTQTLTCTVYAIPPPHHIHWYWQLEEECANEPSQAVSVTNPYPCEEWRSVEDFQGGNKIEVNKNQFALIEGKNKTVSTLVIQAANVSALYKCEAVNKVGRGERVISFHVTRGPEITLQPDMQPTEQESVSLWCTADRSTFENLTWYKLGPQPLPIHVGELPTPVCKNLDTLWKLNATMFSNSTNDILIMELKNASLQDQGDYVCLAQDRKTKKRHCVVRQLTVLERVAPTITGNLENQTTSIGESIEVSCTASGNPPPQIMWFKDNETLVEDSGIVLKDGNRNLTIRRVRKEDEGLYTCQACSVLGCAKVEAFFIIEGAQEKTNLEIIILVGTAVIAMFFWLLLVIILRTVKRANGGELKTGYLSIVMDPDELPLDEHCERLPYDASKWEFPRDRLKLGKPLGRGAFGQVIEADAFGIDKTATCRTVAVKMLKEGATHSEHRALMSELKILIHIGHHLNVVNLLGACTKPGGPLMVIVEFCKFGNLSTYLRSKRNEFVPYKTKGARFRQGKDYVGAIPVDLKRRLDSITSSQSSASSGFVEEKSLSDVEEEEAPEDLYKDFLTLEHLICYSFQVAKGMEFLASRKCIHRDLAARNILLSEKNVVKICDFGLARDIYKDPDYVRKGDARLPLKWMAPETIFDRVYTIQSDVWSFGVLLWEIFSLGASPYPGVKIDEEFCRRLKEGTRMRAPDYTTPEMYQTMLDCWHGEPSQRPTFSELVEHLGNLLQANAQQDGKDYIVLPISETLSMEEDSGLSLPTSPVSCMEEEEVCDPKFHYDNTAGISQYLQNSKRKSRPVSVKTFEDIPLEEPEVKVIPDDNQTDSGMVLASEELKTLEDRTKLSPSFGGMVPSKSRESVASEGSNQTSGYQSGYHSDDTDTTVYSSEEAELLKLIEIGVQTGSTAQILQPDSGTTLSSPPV
measure: pIC50
FYI, pIC50 means -log10 of a concentration in mol per litre.

C#Cc1cccc(Nc2ncnc3cc(OC)c(OCCCCCCC(=O)NO)cc23)c1 has a reported pIC50 of 6.07

====

Assignment: determine reported IC50 for the given molecules.
Test system: MCF7
Test: cells
Type: functional, cell-based
Details: Homo sapiens
Description: Antiproliferative activity against human MCF7 cells after hrs by ATP content assay
Quick note: give the figure in nM, leave out the unit.

C#Cc1cccc(Nc2ncnc3cc(OC)c(OCCCCCCC(=O)NO)cc23)c1 has a reported IC50 of 550

CS(=O)(=O)CCNCc1ccc(-c2ccc3ncnc(Nc4ccc(OCc5cccc(F)c5)c(Cl)c4)c3c2)o1 has a reported IC50 of 6600

COc1cc2ncnc(Nc3ccc(F)c(Cl)c3)c2cc1OCCCCCCC(=O)NO has a reported IC50 of 1100

====

Tested on: NCI-H358
Experiment: cells
Format: functional, cell-based
Details: Homo sapiens
Description: Antiproliferative activity against human NCI-H358 cells after hrs by ATP content assay
measure: pIC50
FYI, pIC50 means -log10 of a concentration in mol per litre.

C#Cc1cccc(Nc2ncnc3cc(OC)c(OCCCCCCC(=O)NO)cc23)c1 has a reported pIC50 of 6.40

COc1cc2ncnc(Nc3ccc(F)c(Cl)c3)c2cc1OCCCCCCC(=O)NO has a reported pIC50 of 6.15

====

System: NCI-H460
Assay: cells
Type: functional, cell-based
Conditions: Homo sapiens
Description: Antiproliferative activity against human H460 cells after hrs by ATP content assay
Assignment: determine reported pIC50 for the given compounds.
FYI, pIC50 means -log10 of a concentration in mol per litre.

COc1cc2ncnc(Nc3ccc(F)c(Cl)c3)c2cc1OCCCCCCC(=O)NO has a reported pIC50 of 6.05

C#Cc1cccc(Nc2ncnc3cc(OC)c(OCCCCCCC(=O)NO)cc23)c1 [CUDC-101] has a reported pIC50 of 6.15

====

System: MDA-MB-231
Test: Antiproliferative activity against human MDA-MB-231 cells after hrs by ATP content assay
Format: functional, cell-based
Assignment: determine reported IC50 for the given compounds.
Quick note: give the figure in nM, leave out the unit.

C#Cc1cccc(Nc2ncnc3cc(OC)c(OCCCCCCC(=O)NO)cc23)c1 has a reported IC50 of 100

O=C(CCCCCCC(=O)Nc1ccccc1)NO has a reported IC50 of 2110

COc1cc2ncnc(Nc3ccc(F)c(Cl)c3)c2cc1OCCCCCCC(=O)NO has a reported IC50 of 370

CS(=O)(=O)CCNCc1ccc(-c2ccc3ncnc(Nc4ccc(OCc5cccc(F)c5)c(Cl)c4)c3c2)o1 has a reported IC50 of 5400

====

Quick record of pIC50 values for UniProt P04626.
Sequence (P04626 whole entry): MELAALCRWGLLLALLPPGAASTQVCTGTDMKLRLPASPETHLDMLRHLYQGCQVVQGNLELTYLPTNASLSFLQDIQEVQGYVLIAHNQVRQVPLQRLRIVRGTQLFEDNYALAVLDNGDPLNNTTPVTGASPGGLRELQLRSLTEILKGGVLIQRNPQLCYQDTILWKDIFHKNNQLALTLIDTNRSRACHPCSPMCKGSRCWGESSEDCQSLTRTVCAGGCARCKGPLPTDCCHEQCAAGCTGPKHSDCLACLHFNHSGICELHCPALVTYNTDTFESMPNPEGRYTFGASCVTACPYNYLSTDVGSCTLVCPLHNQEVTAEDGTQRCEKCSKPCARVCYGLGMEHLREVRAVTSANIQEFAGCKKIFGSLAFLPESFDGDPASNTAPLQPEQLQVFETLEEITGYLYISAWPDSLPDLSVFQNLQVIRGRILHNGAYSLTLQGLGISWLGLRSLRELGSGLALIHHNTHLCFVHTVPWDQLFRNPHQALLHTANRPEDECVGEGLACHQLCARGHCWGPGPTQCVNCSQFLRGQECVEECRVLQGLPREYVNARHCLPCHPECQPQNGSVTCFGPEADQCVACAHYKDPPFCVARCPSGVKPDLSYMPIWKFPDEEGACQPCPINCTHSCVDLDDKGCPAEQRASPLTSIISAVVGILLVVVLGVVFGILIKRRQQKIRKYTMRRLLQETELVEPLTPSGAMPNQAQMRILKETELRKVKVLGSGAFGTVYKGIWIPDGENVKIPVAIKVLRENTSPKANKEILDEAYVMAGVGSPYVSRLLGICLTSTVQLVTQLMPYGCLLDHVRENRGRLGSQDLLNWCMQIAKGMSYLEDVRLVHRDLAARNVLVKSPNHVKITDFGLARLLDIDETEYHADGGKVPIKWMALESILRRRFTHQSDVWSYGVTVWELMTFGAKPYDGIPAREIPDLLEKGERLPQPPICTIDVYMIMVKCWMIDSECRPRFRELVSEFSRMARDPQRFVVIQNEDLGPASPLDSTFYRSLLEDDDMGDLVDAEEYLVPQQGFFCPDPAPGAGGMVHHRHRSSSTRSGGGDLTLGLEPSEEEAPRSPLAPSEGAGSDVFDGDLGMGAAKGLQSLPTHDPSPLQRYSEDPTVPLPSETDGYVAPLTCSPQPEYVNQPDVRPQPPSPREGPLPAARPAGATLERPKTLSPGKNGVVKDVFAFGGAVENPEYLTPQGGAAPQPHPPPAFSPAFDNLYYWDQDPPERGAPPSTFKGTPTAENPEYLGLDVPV
FYI, pIC50 means -log10 of a concentration in mol per litre.

COc1cc2c(Nc3ccc(F)c(Cl)c3)ncnc2cc1OCCCCCCC(=O)NO has a reported pIC50 of 7.15

COc1cc2ncnc(N[C@H](C)c3ccccc3)c2cc1OCCCCCCC(=O)NO has a reported pIC50 of 7.56

C#Cc1cccc(Nc2ncnc3cc(OC)c(OCCCCC(=O)NO)cc23)c1 has a reported pIC50 of 7.42

C#Cc1cccc(Nc2ncnc3cc(OC)c(OCCCCCC(=O)NO)cc23)c1 has a reported pIC50 of 7.42

COc1cc2ncnc(NCc3ccc(Cl)c(F)c3)c2cc1OCCCCCCC(=O)NO has a reported pIC50 of 6.32

COCCOc1cc2ncnc(Nc3ccc(F)c(Cl)c3)c2cc1OCCCCCCC(=O)NO has a reported pIC50 of 7.62

COc1cc2ncnc(Nc3ccc(F)c(Cl)c3)c2cc1OCCCCCCC(=O)NO has a reported pIC50 of 7.72

COc1cc2ncnc(Nc3ccc(F)c(Cl)c3)c2cc1OCCCC(=O)NO has a reported pIC50 of 7.91

====

Biological target: Histone deacetylase
Assay type: cell-based, Homo sapiens
Conditions: hela
Description: Inhibition of HDAC in human HeLa cell nuclear extract
measure: IC50 (nM)
Quick note: give the figure in nM, leave out the unit.

C#Cc1cccc(Nc2ncnc3cc(OC)c(OCCCCC(=O)NO)cc23)c1 has a reported IC50 of 421

COCCOc1cc2ncnc(Nc3ccc(F)c(Cl)c3)c2cc1OCCCCCCC(=O)NO has a reported IC50 of 8.4

COc1cc2ncnc(Nc3ccc(F)c(Cl)c3)c2cc1OCCCCC(=O)NO has a reported IC50 of 551

C#Cc1cc(Nc2ncnc3cc(OC)c(OCCCCCCC(=O)NO)cc23)ccc1F has a reported IC50 of 3.4

COc1cc2ncnc(N[C@H](C)c3ccccc3)c2cc1OCCCCCCC(=O)NO has a reported IC50 of 98.4

COc1cc2ncnc(Nc3ccc(F)c(Cl)c3)c2cc1OCCCCCCC(=O)NO has a reported IC50 of 6.5

COc1cc2ncnc(NC(C)c3ccc(Cl)cc3)c2cc1OCCCCCCC(=O)NO (single isomer, unassigned) has a reported IC50 of 188

COc1cc2ncnc(NC(C)c3ccc(F)cc3)c2cc1OCCCCCCC(=O)NO (single isomer, unassigned) has a reported IC50 of 165.3

====

Test: cells
Type: functional, cell-based, Hep 3B2
Details: Homo sapiens, Hep3B
Description: Antiproliferative activity against human Hep3B2 cells after hrs by ATP content assay
Assignment: determine reported IC50 for the given molecules.
Quick note: give the figure in µM, leave out the unit.

C#Cc1cccc(Nc2ncnc3cc(OC)c(OCCCCCCC(=O)NO)cc23)c1 [CUDC-101] has a reported IC50 of 0.23

COc1cc2ncnc(Nc3ccc(F)c(Cl)c3)c2cc1OCCCCCCC(=O)NO has a reported IC50 of 0.6

CS(=O)(=O)CCNCc1ccc(-c2ccc3ncnc(Nc4ccc(OCc5cccc(F)c5)c(Cl)c4)c3c2)o1 [LAPATINIB] has a reported IC50 of 5.49

====

Target: Histone deacetylase
Format: cell-based, Homo sapiens
Settings: hela
Please use 1 for IC50 under 30 nM and -1 for everything else, ties included.

Asked: Given COc1cc2ncnc(NCc3ccccc3)c2cc1OCCCCCCC(=O)NO , is recorded IC50 strictly lower than 30 nM?
Given back: 1

Asked: Given COc1cc2ncnc(Nc3ccc(F)c(Cl)c3)c2cc1S(=O)(=O)CCCCCCC(=O)NO , is recorded IC50 strictly lower than 30 nM?
Given back: -1

Asked: Given COc1cc2c(Nc3ccc(F)c(Cl)c3)ncnc2cc1OCCCCCCC(=O)NO , is recorded IC50 strictly lower than 30 nM?
Given back: -1

Asked: Given COc1cc2ncnc(NCc3ccc(Cl)c(F)c3)c2cc1OCCCCCCC(=O)NO , is recorded IC50 strictly lower than 30 nM?
Given back: 1

Asked: Given C#Cc1cccc(Nc2ncnc3cc(OCCCCCCC(=O)NO)c(OC)cc23)c1 , is recorded IC50 strictly lower than 30 nM?
Given back: -1

Asked: Given COc1cc2ncnc(Nc3ccc(F)c(Cl)c3)c2cc1OCCC(=O)NO , is recorded IC50 strictly lower than 30 nM?
Given back: -1

Asked: Given COc1cc2ncnc(Nc3ccc(F)c(Cl)c3)c2cc1SCCCCCCC(=O)NO , is recorded IC50 strictly lower than 30 nM?
Given back: -1

Asked: Given COc1cc2ncnc(N[C@@H](C)c3ccccc3)c2cc1OCCCCCCC(=O)NO , is recorded IC50 strictly lower than 30 nM?
Given back: 1

Asked: Given C#Cc1cccc(Nc2ncnc3cc(OC)c(OCCCCCC(=O)NO)cc23)c1 , is recorded IC50 strictly lower than 30 nM?
Given back: 1

Asked: Given COc1cc2ncnc(Nc3ccc(F)c(Cl)c3)c2cc1NC(=O)CCCCCCC(=O)NO , is recorded IC50 strictly lower than 30 nM?
Given back: 1

Asked: Given O=C(CCCCCCOc1ccc2ncnc(Nc3ccc(F)c(Cl)c3)c2c1)NO , is recorded IC50 strictly lower than 30 nM?
Given back: 1

Asked: Given COc1cc2ncnc(Nc3ccc(F)c(Cl)c3)c2cc1OCCCCCC(=O)NO , is recorded IC50 strictly lower than 30 nM?
Given back: -1

Asked: Given COc1cc2ncnc(Nc3ccc(OCc4cccc(F)c4)c(Cl)c3)c2cc1OCCCCCCC(=O)NO , is recorded IC50 strictly lower than 30 nM?
Given back: -1

Asked: Given COc1cc2ncnc(NCc3ccc(F)cc3)c2cc1OCCCCCCC(=O)NO , is recorded IC50 strictly lower than 30 nM?
Given back: 1

====

measure: IC50

Measured on Tyrosine-protein kinase Lyn (Homo sapiens, UniProt P07948), C#Cc1cccc(Nc2ncnc3cc(OC)c(OCCCCCCC(=O)NO)cc23)c1 has a documented IC50 of 0.84 µM
